What abundance fitness was measured for each of the following?
B1: Gamma-crystallin C, residues 4 to 79; numbered along this chain, P07315 (parent)
chain: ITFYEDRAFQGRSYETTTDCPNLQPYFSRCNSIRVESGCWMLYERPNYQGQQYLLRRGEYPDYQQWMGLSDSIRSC

variants of: B1; assay: abundance fitness (aPCA) (normalised: wild type 0, dead -1); higher = more abundant; growth selection in yeast, the domain comes from the species named; conditions: Homo sapiens
Note: the reply should be a number with no unit written.

Q) Sample "Y26L" — what was its abundance fitness?
A) 0.037

Q) Repeat with "T2R"
A) -0.145

Q) Repeat with "T17D"
A) -0.135

Q) Repeat with "Q49F"
A) -0.298

Q) Repeat with "L54I"
A) -0.135

Q) Repeat with "Y4N"
A) -0.631

Q) Repeat with "M41F"
A) 0.104

Q) Repeat with "Q52G"
A) -0.071

Q) Repeat with "Q64F"
A) -0.09

Q) Repeat with "M41R"
A) -0.018

Q) Repeat with "R57T"
A) 0.244

Q) Repeat with "Y48E"
A) -0.373

Q) Repeat with "S72I"
A) 0.007

Q) Repeat with "Q65K"
A) -0.175

Q) Repeat with "E15M"
A) -0.013

Q) Repeat with "R45F"
A) 0.032

Q) Repeat with "S72L"
A) -0.052

Q) Repeat with "M67R"
A) -0.005

Q) Repeat with "D6C"
A) 0.069

Q) Repeat with "E5D"
A) -0.008

Q) Repeat with "E15S"
A) 0.005

Q) Repeat with "S72T"
A) -0.145

Q) Repeat with "L69C"
A) 0.07

Q) Repeat with "E44M"
A) 0.355

Q) Repeat with "E5M"
A) 0.097

Q) Repeat with "R74G"
A) 0.022

Q) Repeat with "S32R"
A) -1.07

Q) Repeat with "N47M"
A) -0.044

Q) Repeat with "Y63V"
A) -0.103

Q) Repeat with "E36G"
A) -0.031

Q) Repeat with "Y63I"
A) -0.028

Q) Repeat with "I33T"
A) -0.494

Q) Repeat with "G58K"
A) -0.197

Q) Repeat with "G68W"
A) 0.003

Q) Repeat with "L42S"
A) -0.287

Q) Repeat with "V35M"
A) -0.84

Q) Repeat with "Q24L"
A) 0.116

Q) Repeat with "Y14A"
A) -0.024

Q) Repeat with "R7N"
A) 0.044

Q) Repeat with "R45G"
A) 0.061

Q) Repeat with "W40P"
A) -0.939

Q) Repeat with "I73Y"
A) -0.207

Q) Repeat with "P25I"
A) -0.174

Q) Repeat with "E15V"
A) -0.073

Q) Repeat with "L54V"
A) 0.02

Q) Repeat with "Q64K"
A) -0.042
